Known IC50 of a selection of compounds
TARGET_DESC: Asp-2 (Homo sapiens, UniProt P56817)
Sequence (P56817 46-501): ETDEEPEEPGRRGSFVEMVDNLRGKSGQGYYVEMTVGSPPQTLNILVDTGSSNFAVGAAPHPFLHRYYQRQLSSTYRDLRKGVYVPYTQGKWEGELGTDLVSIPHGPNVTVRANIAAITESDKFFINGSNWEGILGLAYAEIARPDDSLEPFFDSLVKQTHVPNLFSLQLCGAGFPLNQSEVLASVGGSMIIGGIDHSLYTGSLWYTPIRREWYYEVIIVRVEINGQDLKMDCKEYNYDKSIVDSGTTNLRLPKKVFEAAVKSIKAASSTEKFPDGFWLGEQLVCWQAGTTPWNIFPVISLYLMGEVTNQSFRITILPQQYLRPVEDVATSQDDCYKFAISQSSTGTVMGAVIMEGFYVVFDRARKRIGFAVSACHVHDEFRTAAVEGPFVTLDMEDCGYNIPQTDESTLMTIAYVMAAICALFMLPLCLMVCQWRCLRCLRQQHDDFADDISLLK
TEST_METHOD_NOTES: Asp-2 inhibitory assay
Assay type: biochemical
RUN_PARAMETERS: FAM-[[…]]-TAMRA substrate, pH 4.5, 1 h room temperature; read-out: inhibition in the Asp-2 inhibitory assay
Where a name gives a salt, the structure may show the parent alone.

CCc1cn2c3c(cc(C(=O)N[C@@H](Cc4cccc(Cl)c4)[C@H](O)CNC4CCCCC4)cc13)N(C)S(=O)(=O)CC2 [Example E32, formate salt] ... < 1000 nM

Query :: Reported IC50 for CCc1cn2c3c(cc(C(=O)N[C@@H](Cc4ccccc4)[C@H](O)CNC(C)(C)c4cccc(OC)c4)cc13)N(C)S(=O)(=O)C(C)C2 (stereo partly drawn) [Example E13, formate salt] : what is it?
Result :: < 1000 nM

Query :: Next record, please: CCc1cn2c3c(cc(C(=O)N[C@@H](Cc4ccccc4)[C@H](O)CNCc4cccc(OC(F)(F)F)c4)cc13)N(C)S(=O)(=O)CC2 [Example E67, formate salt]
Result :: < 1000 nM
